# Test system: Staphylococcus aureus
# procedureSummary: Antibacterial activity against multidrug-resistant Staphylococcus aureus 701230
# Format: functional
Listed below: MIC values for each entry.
// units = µg/mL; emit number, no label

1) COc1ccc(/C=C/C(=O)c2ccc(N)cc2)c(Cl)c1: 537
2) O=C(/C=C/c1ccc(O)cc1)c1ccccc1 [4-HYDROXYCHALCONE]: 158
3) C[C@H]1COc2c(N3CCN(C)CC3)c(F)cc3c(=O)c(C(=O)O)cn1c23.C[C@H]1COc2c(N3CCN(C)CC3)c(F)cc3c(=O)c(C(=O)O)cn1c23.O [LEVOFLOXACIN]: 12.5

Enquiry: Requested read-out MIC, target or system Staphylococcus aureus, entry `COc1ccc(C(=O)/C=C/c2ccc(O)cc2)cc1`
Return: 81

====

# Tested on: Enterococcus faecium
# procedureSummary: Antibacterial activity against multidrug-resistant Enterococcus faecium 609205
# Assay type: functional
Listed below: MIC values for each entry.

1) O=C(/C=C/c1ccc(O)cc1)c1ccccc1 [4-HYDROXYCHALCONE]: 315 µg/mL
2) C[C@H]1COc2c(N3CCN(C)CC3)c(F)cc3c(=O)c(C(=O)O)cn1c23.C[C@H]1COc2c(N3CCN(C)CC3)c(F)cc3c(=O)c(C(=O)O)cn1c23.O [LEVOFLOXACIN]: > 1000 µg/mL
3) COc1ccc(/C=C/C(=O)c2ccc(N)cc2)c(Cl)c1: > 1000 µg/mL

// switching to the query compound
Enquiry: Reported MIC, compound `COc1ccc(C(=O)/C=C/c2ccc(O)cc2)cc1` : ____
Return: > 1000 µg/mL

====

# Tested on: SGC-7901
# procedureSummary: Cytotoxicity against Homo sapiens (human) SGC7901 cells after 72 hr by MTT assay
# Type: functional, cell-based
# conditionInfo: Homo sapiens, SGC-7901, 72 h; read-out: IC50
Listed below: IC50 values for each entry.
// units = µM; emit number, no label

Below are worked cases with known answers.
1) COc1ccc(C(=O)/C=C/c2ccc(Cl)cc2Cl)cc1OC: 60.5
2) Nc1ccc(C(=O)/C=C/c2ccccc2F)cc1: 7.44
3) COc1ccc(/C=C/C(=O)c2ccc(N)cc2)c(Cl)c1: 20.2
4) Nc1ccc(C(=O)/C=C/c2ccccc2Cl)cc1: 11.2
5) O=C(/C=C/c1ccccc1C(F)(F)F)c1ccccc1: 40.3

Enquiry: Reported IC50, molecule `COc1ccc(C(=O)/C=C/c2ccccc2Cl)cc1OC` : ____
Return: 24.7

Enquiry: Reported IC50, molecule `Nc1ccc(C(=O)/C=C/c2ccc(Cl)cc2Cl)cc1` : ____
Return: 87.7

Enquiry: Reported IC50, molecule `COc1ccc(C(=O)/C=C/c2ccc(O)cc2)cc1` : ____
Return: 14.7

Enquiry: Reported IC50, molecule `Nc1ccc(C(=O)/C=C/c2ccccc2C(F)(F)F)cc1` : ____
Return: 15.7

Enquiry: Reported IC50, molecule `COc1ccc(/C=C/C(=O)c2cccc(N)c2)c(Cl)c1` : ____
Return: 53.8

Enquiry: Reported IC50, molecule `COc1ccc(/C=C/C(=O)c2cc(F)cc(F)c2)c(OC)c1` : ____
Return: 55.5

====

# System: SGC-7901
# procedureSummary: Cytotoxicity against Homo sapiens (human) SGC7901 cells after 72 hr by MTT assay
# Type: functional, cell-based
# conditionInfo: Homo sapiens, SGC-7901, 72 h; read-out: IC50
measuredParameter: IC50 (µM)
// units = µM; emit number, no label

Below are worked cases with known answers.
1) COc1ccc(C(=O)/C=C/c2ccccc2F)cc1: 21.2
2) COc1ccccc1/C=C/C(=O)c1cc(F)cc(F)c1: 75.4

Enquiry: Requested read-out IC50, target or system SGC-7901, entry `COc1ccc(C(=O)/C=C/c2ccc(F)cc2F)cc1`
Return: 48.4

====

Listed below: pIC50 values for each entry.
# Test system: SGC-7901
# procedureSummary: Cytotoxicity against Homo sapiens (human) SGC7901 cells after 72 hr by MTT assay
# Format: functional, cell-based
# conditionInfo: Homo sapiens, SGC-7901, 72 h; read-out: IC50
By convention, pIC50 is the negative base-10 log of a molar concentration.

1) COc1ccc(/C=C/C(=O)c2ccc(OC)c(OC)c2)cc1: 3.99

// switching to the query compound
Enquiry: Reported pIC50, compound O=C(/C=C/c1ccc(O)cc1)c1ccccc1 [4-HYDROXYCHALCONE] : ____
Return: 4.86

====

# System: SGC-7901
# procedureSummary: Cytotoxicity against Homo sapiens (human) SGC7901 cells after 72 hr by MTT assay
# Type: functional, cell-based
# conditionInfo: Homo sapiens, SGC-7901, 72 h; read-out: IC50
measuredParameter: pIC50
By convention, pIC50 is the negative base-10 log of a molar concentration.

Below are worked cases with known answers.
1. COc1ccc(C(=O)/C=C/c2cccc(OC)c2OC)cc1OC: 4.15
2. COc1ccc(C(=O)/C=C/c2ccc(OC)cc2Cl)cc1: 4.72
3. COc1ccc(C(=O)/C=C/c2ccc(Cl)cc2Cl)cc1: 4.90

// switching to the query compound
Enquiry: Reported pIC50, compound `COc1ccc(C(=O)/C=C/c2ccccc2Br)cc1` : ____
Return: 4.70
